Readings of TGI for the listed compounds
# Tested on: NCI-H23 lung
# Test method notes: NCI tumour cell line growth inhibition, 48 h
Endpoint name: TGI

Smiles | Result
Cn1ccc(=O)c2c(O)c3ccccc3c(O)c21 | > 100 µM
O=C1C(Cl)=C(Cl)C(=O)C2=C1C1c3ccccc3C2c2ccccc21 | > 100 µM
C=Cc1nc2nnc(CCCCCCCCc3nnc4nc(C=C)[nH]n34)n2[nH]1 | > 100 µM
CCOC(=O)C1=C(Cl)c2cccnc2C1=O | 31.6 µM
O=S1(=O)OCCOS(=O)(=O)C1(Br)Cc1ccccc1 | > 100 µM
O=C([O-])c1cc(I)cc(I)c1[OH2+].O=C([O-])c1cc(I)cc(I)c1[OH2+].[Mn+2] | 89.4 µM
COc1cc(/C=N/n2c(-c3ccccc3)n[nH]c2=O)cc(OC)c1OC | > 71.8 µM
Cc1cc(=O)oc2cc(OCc3nc4ccccc4c(=O)n3-c3ccccc3)ccc12 | > 100 µM
Cn1ncc(NC(=O)c2nc(-c3c(F)cccc3F)sc2N)c1N1CC[C@@H](N)[C@H](F)CC1 | 34.4 µM
CC(C)OC(=O)C1=C2c3ncccc3C(=O)N2[C@@H](Cl)[C@H](Cl)[C@H]1Cl | > 100 µM
